target_desc: Serine/threonine-protein kinase PLK1 (Homo sapiens)
procedure_details: PLK1 polo-box domain peptide-binding inhibitors, SAR follow-up, biochemical, fluorescence polarization, purchased analogs, concentration response (AID 1083)
particulars: Plk1 PBD peptide binding
Calls of active or inactive are those of the source. How the calls were made is not given here.
// allowed return values: active, inactive

[[record]]
compound = "CC(=O)N(/N=C1\\Sc2ccccc2C1=O)c1ccc(C)cc1C"
classification = "inactive"

[[record]]
compound = "CCOC(=O)c1ccc(NC(=O)c2cc3ccccc3c(=O)o2)cc1"
classification = "inactive"

[[record]]
compound = "CCOC(=O)c1ccc(N=Cc2c(O)n(CC)c(=O)[nH]c2=O)cc1"
classification = "inactive"

[[record]]
compound = "COc1ccc(-c2nnc3[nH]c(=O)n(C)c(=O)c3n2)cc1OC"
classification = "inactive"

[[record]]
compound = "CC(=O)N(/N=C1\\Sc2ccccc2C1=O)c1ccccc1I"
classification = "inactive"


What classification did CCCOC(=O)c1ccc(NC(=O)c2c(F)c(F)c(F)c(F)c2F)cc1 end up with in this test?
inactive

Hi, do you know how COC(=O)c1ccc(NC(=O)c2cc(-c3ccc(C)o3)nc3ccccc23)cc1 came out in this test?
inactive

I'd appreciate the recorded outcome for CC(=O)N(/N=C1\Sc2ccccc2C1=O)c1ccccc1C from this test.
active

State the result this test recorded for CCn1nc(-c2ccc(C(F)(F)F)cc2)nc2c(=O)n(C)c(=O)nc1-2 .
active

Each compound tested received a call. Report the one for Cc1ccc(N(CN2C(=O)c3ccc([N+](=O)[O-])cc3C2=O)C(=O)C(c2ccccc2)c2ccccc2)cc1 .
inactive

Entry CCCCCOC(=O)c1ccc(NC(=O)c2ccc([N+](=O)[O-])cc2)cc1 : call = ?
inactive

Hi, do you know how CCn1nc(-c2ccc(C(=O)OC)cc2)nc2c(=O)n(C)c(=O)nc1-2 came out in this test?
active

Entry CC(=O)N(CN1C(=O)c2ccccc2C1=O)c1ccc(Br)cc1 : call = ?
inactive

Write down the call the test reported for this compound. Item: Cn1c(=O)[nH]c2nnc(-c3ccc(Cl)cc3)nc2c1=O
inactive

* * *

target_desc: Serine/threonine-protein kinase PLK1 (Homo sapiens)
procedure_details: PLK1 polo-box domain peptide-binding inhibitors, SAR follow-up, biochemical, fluorescence polarization, purchased analogs, concentration response (AID 1083)
particulars: Plk1 PBD peptide binding
Active and inactive are the calls of the source. The rule behind the calls is not given here.
Outcome (select one): label 1 = active, label 0 = inactive

Worked cases, answers included:
[[record]]
compound = "COc1cc(Br)cc(C=C2C(=O)NC(=O)NC2=O)c1O"
target_desc = "Serine/threonine-protein kinase PLK1 (Homo sapiens)"
classification = "label 0"

[[record]]
compound = "CC(=O)Oc1ccccc1N(/C=C1\\Sc2ccccc2C1=O)C(C)=O"
target_desc = "Serine/threonine-protein kinase PLK1 (Homo sapiens)"
classification = "label 0"


// outcome(item) with item = CC(=O)N(/N=C1\Sc2ccccc2C1=O)c1ccccc1
label 1

Which outcome did this test record for the compound CC(=O)N(CN1C(=O)c2ccccc2C1=O)c1ccccc1C ?
label 0

# fetch the recorded call for O=c1cc[nH]c2cc(N3CCOCC3)c(F)cc12 here
label 0

* * *

target_desc: Serine/threonine-protein kinase PLK1 (Homo sapiens) (UniProt P53350)
Sequence (P53350 whole entry, looked up, the tested form may be a part): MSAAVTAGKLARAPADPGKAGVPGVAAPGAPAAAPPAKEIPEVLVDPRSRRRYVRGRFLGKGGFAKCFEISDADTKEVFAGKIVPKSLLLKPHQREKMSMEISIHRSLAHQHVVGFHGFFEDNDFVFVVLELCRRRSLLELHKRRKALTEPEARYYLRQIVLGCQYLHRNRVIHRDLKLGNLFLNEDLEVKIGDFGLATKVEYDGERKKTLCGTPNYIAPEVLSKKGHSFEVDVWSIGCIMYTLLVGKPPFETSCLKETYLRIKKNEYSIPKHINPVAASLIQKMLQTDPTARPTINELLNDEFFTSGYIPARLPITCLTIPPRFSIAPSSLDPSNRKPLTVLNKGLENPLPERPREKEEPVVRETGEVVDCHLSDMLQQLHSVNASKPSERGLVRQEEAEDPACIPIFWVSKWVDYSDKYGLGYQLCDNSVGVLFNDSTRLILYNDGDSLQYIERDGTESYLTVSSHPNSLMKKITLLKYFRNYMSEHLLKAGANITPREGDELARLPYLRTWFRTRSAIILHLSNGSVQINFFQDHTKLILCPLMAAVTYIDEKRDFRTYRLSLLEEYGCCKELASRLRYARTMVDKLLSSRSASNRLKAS
procedure_details: PLK1 polo-box domain peptide-binding inhibitors, SAR follow-up, biochemical, fluorescence polarization, purchased analogs, concentration response (AID 1083)
particulars: Plk1 PBD peptide binding
Active and inactive are the calls of the source. No rule for the calls is given here.
Returns: one label drawn from 1.0 = active, 0.0 = inactive

Example results:
[[record]]
molecule = "COc1ccccc1N(CN1C(=O)c2ccc([N+](=O)[O-])cc2C1=O)C(C)=O"
classification = 0.0

[[record]]
molecule = "CCOC(=O)c1ccc(NC(=O)c2ccc(NC(=O)CC)cc2)cc1"
classification = 0.0

[[record]]
molecule = "CCN(CC)CCOC(=O)c1ccc(N=Cc2c(O)n(-c3c(C)cc(C)cc3C)c(=O)[nH]c2=O)cc1"
classification = 0.0

[[record]]
molecule = "CC(=O)N(CN1C(=O)c2ccccc2C1=O)c1ccc(C)c(Cl)c1"
classification = 0.0

[[record]]
molecule = "CC(=O)N(CN1C(=O)c2ccccc2C1=O)c1ccc(I)cc1"
classification = 0.0


Please indicate how the test categorized Cn1c(=O)[nH]c2nnc(-c3ccc(F)cc3)nc2c1=O .
0.0

For this molecule, state the assay outcome: COc1ccc(C(=O)COC(=O)c2ccc(NC(=O)c3ccccc3)cc2)cc1
0.0

Hi team, can someone confirm the assay call for CCCOC(=O)c1ccc(NC(=O)c2cc(-c3cccs3)nc3c(C)c(Cl)ccc23)cc1 ?
0.0

Just curious, what result did CC(=O)N(/C=C1\Sc2ccccc2C1=O)c1cccc(C)c1 get here?
0.0

Give the logged outcome of this assay for the following molecule: COC(=O)c1ccc(N(/N=C2\Sc3ccccc3C2=O)C(C)=O)cc1
1.0

Status in this test for CC(=O)N(/C=C1\Sc2ccccc2C1=O)c1ccc(C)cc1 ?
0.0

What is the recorded call for this molecule in the test? CCOC(=O)c1ccc(NC(=O)C2CCCCC2C(=O)O)cc1 (stereo not given)
0.0

Name the outcome recorded for CCCCCCC(=O)N(CN1C(=O)c2ccccc2C1=O)c1ccc(OCc2ccccc2)cc1 in the assay.
0.0

Outcome? CCn1nc(-c2ccccc2)nc2c(=O)n(C)c(=O)nc1-2
1.0

Identify the outcome logged in this assay for the molecule shown: CC(=O)N(/N=C1\Sc2ccccc2C1=O)c1cccc(C)c1
1.0

Could you kindly confirm the outcome this assay logged for CCCCCC(=O)N(CN1C(=O)c2ccccc2C1=O)c1ccc(OCc2ccccc2)cc1 ?
0.0

So what was the verdict on COc1cc(C=C2C(=O)NC(=O)NC2=O)cc(Cl)c1O in this test?
0.0

Which outcome did this test record for the molecule Cn1c(=O)[nH]c2nnc(-c3ccc(C(F)(F)F)cc3)nc2c1=O ?
0.0

Entry Cn1c(=O)c2nc(-c3ccccc3)c(-c3ccccc3)nc2n(C)c1=O : call = ?
0.0

# fetch the recorded call for CCOC(=O)c1ccc(NC(=O)C2C3C=CC(C3)C2C(=O)O)cc1 (stereo not given) here
0.0

What is the recorded call for this molecule in the test? CCOC(=O)c1ccc(N=Cc2c(O)n(Cc3cccs3)c(=O)[nH]c2=O)cc1
0.0

Field: outcome | Entry: CCCCCCC(=O)N(CN1C(=O)c2ccccc2C1=O)c1ccccc1
0.0

All values here come from PubChem BioAssay AID1083.
